# credit: patent US7432260B2

The reader will find IC50 measurements below, all made with Abl (Ableson tyrosine kinase) (Homo sapiens, UniProt P00519).
Sequence (P00519 whole entry, species assumed): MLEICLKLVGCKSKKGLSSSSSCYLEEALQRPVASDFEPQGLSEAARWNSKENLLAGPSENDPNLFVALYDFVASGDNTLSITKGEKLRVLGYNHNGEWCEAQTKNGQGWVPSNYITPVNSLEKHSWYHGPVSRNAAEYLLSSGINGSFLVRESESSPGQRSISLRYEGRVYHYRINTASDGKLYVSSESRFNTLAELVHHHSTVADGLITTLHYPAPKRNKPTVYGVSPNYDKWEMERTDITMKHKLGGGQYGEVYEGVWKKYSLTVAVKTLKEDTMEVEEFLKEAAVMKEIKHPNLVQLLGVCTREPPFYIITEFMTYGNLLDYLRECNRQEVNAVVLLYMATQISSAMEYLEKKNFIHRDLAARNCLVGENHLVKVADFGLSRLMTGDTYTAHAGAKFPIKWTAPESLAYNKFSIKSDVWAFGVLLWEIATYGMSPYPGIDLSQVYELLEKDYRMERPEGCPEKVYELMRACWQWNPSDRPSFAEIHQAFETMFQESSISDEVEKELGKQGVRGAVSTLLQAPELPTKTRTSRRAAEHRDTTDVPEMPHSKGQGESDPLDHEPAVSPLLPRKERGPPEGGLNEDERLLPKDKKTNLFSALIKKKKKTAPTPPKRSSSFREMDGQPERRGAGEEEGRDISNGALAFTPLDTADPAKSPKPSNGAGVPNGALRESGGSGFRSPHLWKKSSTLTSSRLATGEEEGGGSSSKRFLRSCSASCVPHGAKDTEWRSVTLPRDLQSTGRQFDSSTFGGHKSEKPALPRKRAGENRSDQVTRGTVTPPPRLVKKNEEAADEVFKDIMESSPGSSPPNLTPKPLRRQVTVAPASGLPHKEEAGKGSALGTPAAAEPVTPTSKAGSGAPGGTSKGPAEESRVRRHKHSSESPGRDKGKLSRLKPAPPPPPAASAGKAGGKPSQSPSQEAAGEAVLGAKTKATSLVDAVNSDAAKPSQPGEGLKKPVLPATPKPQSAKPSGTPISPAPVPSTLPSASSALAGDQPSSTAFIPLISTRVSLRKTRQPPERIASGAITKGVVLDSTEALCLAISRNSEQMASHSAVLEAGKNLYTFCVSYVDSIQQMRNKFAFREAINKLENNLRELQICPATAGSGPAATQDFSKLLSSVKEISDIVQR
Assay endpoint: IC50 (µM)

>>> reported_value("Cc1nc(NC(=O)[C@H](N)[C@@H](C)O)sc1-c1ccnc(Nc2cccc([N+](=O)[O-])c2)n1")
0.76
>>> reported_value("CC[C@@H](N)C(=O)Nc1nc(C)c(-c2ccnc(Nc3cccc([N+](=O)[O-])c3)n2)s1")
1.5
>>> reported_value("CNc1nc(C)c(-c2ccnc(Nc3ccc(N4CCOCC4)cc3)n2)s1")
50
>>> reported_value("CNc1nc(C)c(-c2ccnc(Nc3ccc(N4CCN(Cc5ccccc5)CC4)cc3)n2)s1")
72

----------
Entries and their pIC50
Target: GSK-3β (Homo sapiens, UniProt P49841)
Sequence (P49841 whole entry): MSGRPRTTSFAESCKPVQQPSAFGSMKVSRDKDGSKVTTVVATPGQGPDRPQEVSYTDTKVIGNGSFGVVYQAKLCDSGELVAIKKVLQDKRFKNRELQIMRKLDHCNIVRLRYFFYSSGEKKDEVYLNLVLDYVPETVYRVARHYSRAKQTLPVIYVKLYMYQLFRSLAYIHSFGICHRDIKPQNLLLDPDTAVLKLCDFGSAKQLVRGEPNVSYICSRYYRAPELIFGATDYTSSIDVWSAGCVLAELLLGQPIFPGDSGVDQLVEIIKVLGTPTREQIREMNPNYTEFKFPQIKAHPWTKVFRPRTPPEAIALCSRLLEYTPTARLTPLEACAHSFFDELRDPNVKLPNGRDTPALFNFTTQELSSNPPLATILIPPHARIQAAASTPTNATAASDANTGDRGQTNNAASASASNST
Experiment: Kinase assay GSK-3β
Format: biochemical
Conditions: Table 2; read-out: Kinase Inhibition IC50 GSK-3β
pIC50: −log10 of the molar value.
Assay endpoint: pIC50

>>> reported_value("Cc1c(-c2ccnc(Nc3ccc(N4CCOCC4)cc3)n2)sc(=O)n1C")
6.33
>>> reported_value("CNc1nc(C)c(-c2ccnc(Nc3ccc(N4CCN(Cc5ccccc5)CC4)cc3)n2)s1")
5.22
>>> reported_value("CC(=O)N1CCN(c2ccc(Nc3nccc(-c4sc(C)nc4C)n3)cc2)CC1")
4.68
>>> reported_value("Cc1nc(NC(=O)CCN2CCN(C)CC2)sc1-c1ccnc(Nc2cccc([N+](=O)[O-])c2)n1")
5.92

----------
Biological target: CDK1/cyclin B (Homo sapiens)
Sequence (P06493 whole entry): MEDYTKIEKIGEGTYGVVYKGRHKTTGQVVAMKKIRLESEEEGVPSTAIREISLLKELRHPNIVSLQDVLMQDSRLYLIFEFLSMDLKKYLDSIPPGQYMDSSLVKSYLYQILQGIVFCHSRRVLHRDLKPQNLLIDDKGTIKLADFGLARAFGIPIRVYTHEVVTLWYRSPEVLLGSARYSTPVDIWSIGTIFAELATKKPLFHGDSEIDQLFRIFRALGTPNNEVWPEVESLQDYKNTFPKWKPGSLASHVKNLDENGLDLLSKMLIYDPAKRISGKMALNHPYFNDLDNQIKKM
Sequence (P14635 whole entry partner): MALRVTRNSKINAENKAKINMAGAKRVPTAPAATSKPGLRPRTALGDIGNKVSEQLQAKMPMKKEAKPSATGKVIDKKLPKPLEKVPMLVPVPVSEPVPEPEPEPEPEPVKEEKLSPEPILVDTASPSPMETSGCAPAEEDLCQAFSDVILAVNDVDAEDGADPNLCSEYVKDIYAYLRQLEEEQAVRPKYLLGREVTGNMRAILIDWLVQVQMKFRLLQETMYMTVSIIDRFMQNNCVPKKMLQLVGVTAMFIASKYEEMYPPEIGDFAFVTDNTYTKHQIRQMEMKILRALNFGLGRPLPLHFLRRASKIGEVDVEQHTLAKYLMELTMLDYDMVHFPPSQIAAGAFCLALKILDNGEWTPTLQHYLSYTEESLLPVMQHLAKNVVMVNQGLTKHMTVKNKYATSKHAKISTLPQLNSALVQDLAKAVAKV
Test: Kinase assay CDK1/cyclin B
Assay type: biochemical
Conditions: Table 2; read-out: Kinase Inhibition IC50 CDK1 cyclin B
Assay endpoint: log10 IC50 (log10 of the value in µM)

>>> reported_value("Cc1nc(NC(=O)[C@H](N)[C@@H](C)O)sc1-c1ccnc(Nc2cccc([N+](=O)[O-])c2)n1 [Compound 15]")
0.73
>>> reported_value("CCNc1nc(C)c(-c2ccnc(Nc3cccc(CO)c3)n2)s1 [Compound 68]")
-0.82
>>> reported_value("CNc1nc(C)c(-c2ccnc(Nc3cccc(CO)c3)n2)s1 [Compound 91]")
-0.92
>>> reported_value("COc1ccc(Nc2nccc(-c3sc(NC(=O)CCN4CCOCC4)nc3C)n2)cc1 [Compound 38]")
0.28
>>> reported_value("CC[C@@H](N)C(=O)Nc1nc(C)c(-c2ccnc(Nc3cccc([N+](=O)[O-])c3)n2)s1 [Compound 16]")
0.45
>>> reported_value("Cc1nc(C)c(-c2ccnc(Nc3ccc(N4CCNCC4)cc3)n2)s1 [Compound 6]")
0.48
>>> reported_value("Cc1nc(C)c(-c2ccnc(Nc3ccc(Cl)c(CO)c3)n2)s1 [Compound 72]")
1.79
>>> reported_value("CNc1nc(C)c(-c2ccnc(Nc3ccc(N4CCOCC4)cc3)n2)s1 [Compound 3]")
1.85
>>> reported_value("Cc1nc(C)c(-c2ccnc(Nc3ccc(N4CCN(CCCO)CC4)cc3)n2)s1 [Compound 8]")
0.69
>>> reported_value("Cc1nc(NC(=O)CCl)sc1-c1ccnc(Nc2cccc(Cl)c2)n1 [Compound 25]")
0.97
>>> reported_value("Cc1nc(C)c(-c2ccnc(Nc3ccc(NC(=O)Cn4ccnc4)cc3)n2)s1 [Compound 54]")
0.11
>>> reported_value("Cc1nc(NC(=O)CN2CCN(C(=O)OC(C)(C)C)CC2)sc1-c1ccnc(Nc2cccc([N+](=O)[O-])c2)n1 [Compound 28]")
1.56
>>> reported_value("CCN(CC)CCNCCC(=O)Nc1nc(C)c(-c2ccnc(Nc3ccc(Cl)cc3)n2)s1 [Compound 36]")
1.52
>>> reported_value("Cc1c(-c2ccnc(Nc3ccc(N4CCOCC4)cc3)n2)sc(=O)n1C [Compound 92]")
1.18
>>> reported_value("Cc1nc(C)c(-c2ccnc(Nc3ccc(N4CCN(S(C)(=O)=O)CC4)cc3)n2)s1 [Compound 10]")
1.71
>>> reported_value("Cc1c(-c2ccnc(Nc3ccc(N4CCN(C)CC4)cc3)n2)sc(=O)n1C [Compound 93]")
0.64
>>> reported_value("Cc1nc(C)c(-c2ccnc(Nc3ccc(N4CCN(C)CC4)cc3)n2)s1 [Compound 12]")
0.62
>>> reported_value("Cc1nc(N2CCOCC2)sc1-c1ccnc(Nc2cccc(O)c2)n1 [Compound 55]")
0.38
>>> reported_value("Cc1nc(NC(=O)CCBr)sc1-c1ccnc(Nc2ccc(F)cc2)n1 [Compound 20]")
0.28
>>> reported_value("Cc1nc(C)c(-c2ccnc(Nc3ccc(N4CCN(CCO)CC4)cc3)n2)s1 [Compound 9]")
0.72
>>> reported_value("CCNc1nc(C)c(-c2ccnc(Nc3ccc(N4CCOCC4)cc3)n2)s1 [Compound 4]")
1.48
>>> reported_value("COc1ccc(Nc2nccc(-c3sc(NC(=O)CCN4CCN(C)CC4)nc3C)n2)cc1 [Compound 40]")
1.79
>>> reported_value("Cc1nc(C)c(-c2ccnc(Nc3ccc(N4CCOCC4)cc3)n2)s1 [Compound 2]")
1.88
>>> reported_value("Cc1nc(NC(=O)CCN2CCOCC2)sc1-c1ccnc(Nc2cccc([N+](=O)[O-])c2)n1 [Compound 22]")
-0.62
>>> reported_value("Cc1nc(C)c(-c2ccnc(Nc3ccc(NC(=O)CN4CCCC4)cc3)n2)s1 [Compound 53]")
0.72
>>> reported_value("CC(=O)N1CCN(c2ccc(Nc3nccc(-c4sc(C)nc4C)n3)cc2)CC1 [Compound 5]")
0.75
>>> reported_value("CNc1nc(C)c(-c2ccnc(Nc3ccc(N4CCN(Cc5ccccc5)CC4)cc3)n2)s1 [Compound 11]")
0.38
>>> reported_value("Cc1nc(NC(=O)CCN)sc1-c1ccnc(Nc2cccc([N+](=O)[O-])c2)n1 [Compound 13]")
0.75
>>> reported_value("CNc1nc(C)c(-c2ccnc(Nc3ccc(N4CCNCC4)cc3)n2)s1 [Compound 62]")
-0.01
>>> reported_value("Cc1nc(C)c(-c2ccnc(Nc3ccc(NC(=O)CCl)cc3)n2)s1 [Compound 50]")
0.53
>>> reported_value("CNc1nc(C)c(-c2ccnc(Nc3ccc(CCO)cc3)n2)s1 [Compound 59]")
-0.15
>>> reported_value("Cc1nc(C)c(-c2ccnc(Nc3ccc(NC(=O)CN4CCOCC4)cc3)n2)s1 [Compound 51]")
1.04
>>> reported_value("CC(=O)Nc1ccc(Nc2nccc(-c3sc(C)nc3C)n2)cc1 [Compound 45]")
0.40
>>> reported_value("Cc1nc(NC(=O)[C@@H](N)[C@H](C)O)sc1-c1ccnc(Nc2cccc([N+](=O)[O-])c2)n1 [Compound 17]")
0.30

----------
// values below are reported IC90
Test system: HIV-1 (clinical paediatric strain RoJo or WeJo) in human PBMCs
Experiment: Anti-HIV efficacy evaluation in fresh human PBMCs
Assay type: cell-based
Details: Human immunodeficiency virus 1, PBMC, 168 h; concentration inhibiting virus replication by 90%; seven days following infection
Assay endpoint: IC90 (µM)

>>> reported_value("Cc1nc(C)c(-c2ccnc(Nc3ccc(NC(=O)CN4CCCC4)cc3)n2)s1")
0.871
>>> reported_value("Cc1nc(NC(=O)[C@H](N)[C@@H](C)O)sc1-c1ccnc(Nc2cccc([N+](=O)[O-])c2)n1")
0.385
>>> reported_value("CNc1nc(C)c(-c2ccnc(Nc3ccc(N4CCOCC4)cc3)n2)s1")
0.679
>>> reported_value("CCNc1nc(C)c(-c2ccnc(Nc3ccc(N4CCOCC4)cc3)n2)s1")
0.295
>>> reported_value("Cc1nc(N)sc1-c1ccnc(Nc2ccc(N3CCOCC3)cc2)n1")
2.65

----------
Target: CDK4/cyclin D1 (Homo sapiens, UniProt P11802)
Sequence (P11802 whole entry): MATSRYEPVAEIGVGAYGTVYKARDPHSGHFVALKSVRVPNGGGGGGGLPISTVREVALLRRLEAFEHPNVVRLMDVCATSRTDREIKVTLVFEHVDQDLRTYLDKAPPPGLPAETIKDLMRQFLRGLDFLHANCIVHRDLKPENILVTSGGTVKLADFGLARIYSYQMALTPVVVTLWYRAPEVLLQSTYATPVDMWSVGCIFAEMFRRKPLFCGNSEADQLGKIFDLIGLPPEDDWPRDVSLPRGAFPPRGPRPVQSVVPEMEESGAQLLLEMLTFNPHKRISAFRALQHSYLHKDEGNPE
Sequence (P24385 whole entry partner): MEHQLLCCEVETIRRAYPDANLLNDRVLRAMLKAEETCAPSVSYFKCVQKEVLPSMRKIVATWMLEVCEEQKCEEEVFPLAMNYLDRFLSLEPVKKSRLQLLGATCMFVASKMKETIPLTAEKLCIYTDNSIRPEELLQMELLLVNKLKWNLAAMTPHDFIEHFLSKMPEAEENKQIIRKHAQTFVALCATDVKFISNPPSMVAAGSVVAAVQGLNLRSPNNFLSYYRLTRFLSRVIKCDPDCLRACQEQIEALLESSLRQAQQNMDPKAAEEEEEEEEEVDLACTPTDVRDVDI
Experiment: Kinase assay CDK4/cyclin D1
Type: biochemical
Details: Table 2; read-out: Kinase Inhibition IC50 CDK4 cyclin D1
Assay endpoint: log10 of IC50 (log10 of the value in nM)

>>> reported_value("CNc1nc(C)c(-c2ccnc(Nc3ccc(N4CCNCC4)cc3)n2)s1")
0.85
>>> reported_value("COc1cccc(Nc2nccc(-c3sc(NC(=O)CCN4CCOCC4)nc3C)n2)c1")
4.51
>>> reported_value("Cc1nc(C)c(-c2ccnc(Nc3ccc(N4CCN(CCO)CC4)cc3)n2)s1")
2.63
>>> reported_value("CNc1nc(C)c(-c2ccnc(Nc3cccc(CN)c3)n2)s1")
2.38
>>> reported_value("CC[C@@H](N)C(=O)Nc1nc(C)c(-c2ccnc(Nc3cccc([N+](=O)[O-])c3)n2)s1")
3.83
>>> reported_value("CNc1nc(C)c(-c2ccnc(Nc3cccc(CNS(C)(=O)=O)c3)n2)s1")
2.83
>>> reported_value("CNc1nc(C)c(-c2ccnc(Nc3ccc(Cl)c(CO)c3)n2)s1")
2.36
>>> reported_value("CNc1nc(C)c(-c2ccnc(Nc3cccc(CO)c3)n2)s1")
2.80
>>> reported_value("Cc1nc(NC(=O)[C@@H](N)CO)sc1-c1ccnc(Nc2cccc([N+](=O)[O-])c2)n1")
3.34
